Target: T1, human CNTN4-rabbit Fc (human; rabbit, UniProt Q8IWV2 19-1000, limits assumed)
T1 construct: not shown: rabbit Fc
T1 sequence (looked up): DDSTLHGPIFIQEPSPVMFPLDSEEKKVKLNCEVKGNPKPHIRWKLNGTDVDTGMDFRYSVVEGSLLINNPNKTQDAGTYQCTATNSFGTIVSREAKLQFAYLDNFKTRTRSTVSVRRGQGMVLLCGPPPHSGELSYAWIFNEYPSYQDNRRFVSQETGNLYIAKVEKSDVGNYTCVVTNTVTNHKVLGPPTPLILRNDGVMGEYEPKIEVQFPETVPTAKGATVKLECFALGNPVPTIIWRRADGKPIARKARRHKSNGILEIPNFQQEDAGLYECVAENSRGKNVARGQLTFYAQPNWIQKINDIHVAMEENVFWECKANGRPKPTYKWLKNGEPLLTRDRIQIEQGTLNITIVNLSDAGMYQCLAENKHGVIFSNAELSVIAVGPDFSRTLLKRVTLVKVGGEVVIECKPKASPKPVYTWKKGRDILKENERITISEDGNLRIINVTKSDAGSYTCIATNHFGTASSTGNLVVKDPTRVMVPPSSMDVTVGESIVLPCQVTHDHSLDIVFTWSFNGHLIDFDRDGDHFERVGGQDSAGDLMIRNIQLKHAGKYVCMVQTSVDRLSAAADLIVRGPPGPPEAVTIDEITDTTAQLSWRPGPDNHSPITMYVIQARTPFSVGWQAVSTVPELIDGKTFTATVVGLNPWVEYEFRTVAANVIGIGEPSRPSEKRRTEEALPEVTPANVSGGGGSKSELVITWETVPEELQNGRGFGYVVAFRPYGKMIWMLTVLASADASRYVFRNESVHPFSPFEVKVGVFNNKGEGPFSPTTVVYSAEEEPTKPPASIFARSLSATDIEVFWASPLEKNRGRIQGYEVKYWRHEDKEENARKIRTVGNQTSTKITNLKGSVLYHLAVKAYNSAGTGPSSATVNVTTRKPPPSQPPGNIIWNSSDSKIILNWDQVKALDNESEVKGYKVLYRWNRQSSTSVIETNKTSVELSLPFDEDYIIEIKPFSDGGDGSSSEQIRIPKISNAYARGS
Assay: ELISA, plate coated with antigen-rabbit Fc, anti-human kappa-HRP
The following binders are shown together with reported EC50 values.
assay_readout: EC50 (nM)

anti-CNTN4 scFv-hCk S129 (scFv, part only; not given: linker and kappa constant region, not shown: a dimerising Fc or GST) scFv, part: ALTQPSSVSANLGETVKITCSGSSGSYGWYQQKSPGSAPVTLIYDNTNRPSDIPSRFSGSGSGSTGTLTITGVRAEDEAVYYCGGYDGSTDVFGAGTTLTVLAVTLDESEGGLQTPGGALSLVCKASGFTFSSFNMFWVRQAPGKGLEYVAEISGGGGSTWYAPAVKGRATISRDNGQSTVRLQLNNLRAEDTGTYYCAKSADTWSYGAATIDAWGHGTEVIVSS | 0.55
anti-CNTN4 scFv-hCk S24 (scFv, part only; not given: linker and kappa constant region, not shown: a dimerising Fc or GST) scFv, part: ALTQPSSVSANPGETVEITCSGGSGSYGWYQQKAPGSAPVTVIYDNTNRPSNIPSRFSGSGSDSTGTLTITGVQADDEAVYYCGSYDSIEVIFGAGTTLTVLAVTLDESGGGLHTPGGALSLVCKASGFTFSSYGMAWVRQAPGKGLEWVAGITSSGSSAGYGPAVKGRATISRDNGQSTVRLQLNNLRAEDTATYYCAKDGYIYSGGDSDSIDAWGHGTEVIVSS | 1.12

Provenance of the data: patent US20240182563A1
